// reported binding signal for each item listed
Target: T1, UNK ZnF1-3 (human, UniProt Q9C0B0 31-174)
T1 sequence: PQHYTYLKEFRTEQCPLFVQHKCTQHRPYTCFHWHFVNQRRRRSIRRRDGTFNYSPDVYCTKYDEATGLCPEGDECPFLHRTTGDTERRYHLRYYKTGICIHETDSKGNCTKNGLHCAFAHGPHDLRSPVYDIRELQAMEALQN
Test: nsRBNS (natural sequence RNA bind-n-seq); RBNS binding buffer (assumed for nsRBNS): 25 mM Tris pH 7.5, 150 mM KCl, 3 mM MgCl2, 0.01% Triton X-100, 500 ug/ml BSA, 20 U/ml SUPERase-In, 4 C; UNK is unkempt and MSI1 is Musashi-1; names of the RNAs are library labels; protein concentration not given here; high values mean tight binding
Whole data set: some 24,000 sequences, median “enrichment r” near 0.99, cut for the highest 2% near 3.7. For the sample, the highest values were picked, then their nearest neighbours and some sequences at random.
endpoint_name: binding signal (enrichment R)

binder="chrX:100668055:100668056:+_ENSG00000126945_ENST00000316594|hu_mus|FALSE|FALSE (ssRNA) RNA: GGGAGUUCUACAGUCCGACGAUCGAGCUCUACAUAGCUAUGAUCAUAAGCUCCUCCACUUGUCCCUGCGGUAGAAUUCAAGAAGAGCUCCACAUAUCUGUGUUGCAUAUUUGCUUUAUCUUUUGCCAUAGCUGCCACAGCGUCCAACAGAGGAUUGAGCAUCA" unit_of_measure="enrichment R" recorded_measurement=1
binder="chr1:247070963:247070964:-_ENSG00000153207_ENST00000391829|hu_mus|motif|central (ssRNA) RNA: GGGAGUUCUACAGUCCGACGAUCCUGAUUUGUCCUGUUGAUGUAACUCAGAGUAGAAAUGGCUACUCCCAAUGGGCUUACGGACUGGAAGCACAGGUGGCGCCCCUCUCUCAUCACUCUCUCUCUGAUGUGUGGUACUUCAGCCAACAGAGGAUUGAGCAUCA" unit_of_measure="enrichment R" recorded_measurement=1.02
binder="chr5:6374476:6374477:-_ENSG00000133398_ENST00000255764|hu_mus|FALSE|FALSE (ssRNA) RNA: GGGAGUUCUACAGUCCGACGAUCUAGGCUUUUAAAUUUCUUCAUUGUGUCGAUCUUGCCCUUGACUUGCUCGUUUUUAGCUAGAGCCCUCUCCAGGCAUUCUUUGGUGUAGAGCUGGGGAUUCCGACCUUGAUCAAUGUAUUCCAACAGAGGAUUGAGCAUCA" unit_of_measure="enrichment R" recorded_measurement=0.465
binder="186301657_186302230_1024_CDS_ENSG00000090520_ENST00000265028|human|control|control (ssRNA) RNA: GGGAGUUCUACAGUCCGACGAUCGGAAAUAUGUACCUUGUGACCAUCCAAGUGAGUAAUAUCCAUCUCAAAGCCAACCAGUGACUCAACUAAUGAGAUUGUCACAUUUGUGUACAAAUCAUCUCCUCUCCUUUCAAAUAUUGGCAACAGAGGAUUGAGCAUCA" unit_of_measure="enrichment R" recorded_measurement=0.986
binder="chr19:7360422:7360423:-_ENSMUSG00000024969_ENSMUST00000032557|mus_mus|FALSE|FALSE (ssRNA) RNA: GGGAGUUCUACAGUCCGACGAUCAUAAGGAGGACUGCCACAGAAAGUAUCCAGCUUGUUCCCAAAGGUGAAUUCGUUGCUAAAGCCAAAGUCUGCAAUCUUGAUGUUCAUAUCAGCAUCCAGGAGCAGGUUUUCUGCCUUUAGCAACAGAGGAUUGAGCAUCA" unit_of_measure="enrichment R" recorded_measurement=0.665
binder="chr18:86887116:86887117:+_ENSMUSG00000024647_ENSMUST00000068423|mus_mus|FALSE|FALSE (ssRNA) RNA: GGGAGUUCUACAGUCCGACGAUCCGCGUCAGCUCCGCCAUUGUUAAGGGAUUCAUGAGCAAUGAGCAAUGCCAGGUUACUAAGGGAUCCCAGAGAAUAAAUUAAAAAAAAAAAAAAAUGAAAUCCACGUUGCAAGUUUGAAGCCAACAGAGGAUUGAGCAUCA" unit_of_measure="enrichment R" recorded_measurement=6.14
binder="chr18:86887116:86887117:+_ENSMUSG00000024647_ENSMUST00000068423|mus_mus|motif|central (ssRNA) RNA: GGGAGUUCUACAGUCCGACGAUCCGCGUCAGCUCCGCCAUUGUUAAGGGAUUCAUGAGCAAUGAGCAAUGCCAGGUUACGGAGGGAUCCCAGAGAAUAAAUUAAAAAAAAAAAAAAAUGAAAUCCACGUUGCAAGUUUGAAGCCAACAGAGGAUUGAGCAUCA" unit_of_measure="enrichment R" recorded_measurement=8.87
